- System: human SMAD7 mRNA
- method: Antisense inhibition of human SMAD7 mRNA expression in Hep3B cells by 3-10-3 cEt gapmers, 10,000 nM, electroporation (Example 2)
- Format: cell-based
- condition parameters: Hep3B cells, electroporation, 10,000 nM, approximately 24 hours; 3-10-3 cEt gapmers targeting SEQ ID NO: 3 and 4
Strand notation (5' to 3'): a small letter for the sugar, then the base; units joined by * are phosphorothioate-linked, units joined directly phosphodiester-linked; [ ] holds rarer units or linkages, { } end groups; capitals alone tell only the bases. k = constrained ethyl (cEt); [5mC] = 5-methylcytosine; d = 2'-deoxy (DNA)
measured property: % inhibition of SMAD7 mRNA expression (%)
The figure you give is taken to be in %; do not add the unit.

Would you kindly share the measured % inhibition of SMAD7 mRNA expression for 799269 (antisense kA*kG*kA*d[5mC]*dT*d[5mC]*d[5mC]*dA*dG*dT*dT*d[5mC]*dG*kG*k[5mC]*k[5mC]) [compound 799269] ? 20

Further, for 829943 (kG*kG*kG*dA*dG*dA*d[5mC]*dT*d[5mC]*d[5mC]*dA*dG*dT*kT*k[5mC]*kG; antisense) [compound 829943] ? 43

###

- Tested on: human SMAD7 mRNA
- method: Dose-dependent inhibition of human SMAD7 mRNA expression in Hep3B cells (Example 3, Study 1 and 2)
- Assay type: cell-based
- condition parameters: 312.5 nM, electroporation, approximately 16 hours, Study 1, relative to untreated control cells
Strand notation (5' to 3'): a small letter for the sugar, then the base; units joined by * are phosphorothioate-linked, units joined directly phosphodiester-linked; [ ] holds rarer units or linkages, { } end groups; capitals alone tell only the bases. e = 2'-O-(2-methoxyethyl) (MOE); [5mC] = 5-methylcytosine; d = 2'-deoxy (DNA)
Reported % inhibition of SMAD7 mRNA expression is given for each of the following substances.
The figure you give is taken to be in %; do not add the unit.

Below, each entry is followed by its recorded % inhibition of SMAD7 mRNA expression result.
{"substance": "771715 (antisense eA*eG*eT*e[5mC]*eT*d[5mC]*d[5mC]*dG*dA*dG*dT*dT*dA*dT*d[5mC]*e[5mC]*e[5mC]*e[5mC]*eA*eT) [compound 771715]", "tested on": "human SMAD7 mRNA", "numeric value": 7}
{"substance": "771416 (e[5mC]*e[5mC]*e[5mC]*e[5mC]*eA*dT*dG*d[5mC]*dG*d[5mC]*dT*d[5mC]*dG*dG*d[5mC]*eT*eG*eT*e[5mC]*e[5mC]; antisense) [compound 771416]", "tested on": "human SMAD7 mRNA", "numeric value": 0}
{"substance": "771479 (antisense eG*eG*eG*eA*eA*d[5mC]*dA*d[5mC]*d[5mC]*dT*dT*dG*dT*dG*dT*eA*e[5mC]*e[5mC]*eA*eA) [compound 771479]", "tested on": "human SMAD7 mRNA", "numeric value": 0}
{"substance": "771461 (antisense eG*eT*eA*eG*eA*dG*d[5mC]*d[5mC]*dT*d[5mC]*d[5mC]*d[5mC]*d[5mC]*dA*d[5mC]*eT*e[5mC]*eT*e[5mC]*eG) [compound 771461]", "tested on": "human SMAD7 mRNA", "numeric value": 0}
{"substance": "771850 (antisense eT*e[5mC]*e[5mC]*e[5mC]*eA*d[5mC]*dT*dT*d[5mC]*dT*d[5mC]*d[5mC]*dT*d[5mC]*dT*eG*eG*e[5mC]*eT*eG) [compound 771850]", "tested on": "human SMAD7 mRNA", "numeric value": 0}

Would you kindly share the measured % inhibition of SMAD7 mRNA expression for 771661 (antisense eA*eA*eT*eG*e[5mC]*dT*dT*d[5mC]*dT*d[5mC]*dT*dT*dG*dT*dT*e[5mC]*eA*eT*eT*eT) [compound 771661] ? 0

Further, for 771815 (antisense e[5mC]*eT*e[5mC]*e[5mC]*e[5mC]*dT*dT*dT*dT*d[5mC]*dA*d[5mC]*dT*dG*d[5mC]*eT*e[5mC]*e[5mC]*eA*e[5mC]) [compound 771815] ? 0

Further, for 771900 (antisense eA*eT*eG*e[5mC]*e[5mC]*d[5mC]*dA*d[5mC]*d[5mC]*dA*dG*dT*d[5mC]*dT*dT*e[5mC]*e[5mC]*eT*eG*eA) [compound 771900] ? 0

Further, for 771885 (antisense e[5mC]*eA*eA*eG*eT*d[5mC]*dT*d[5mC]*dT*dT*dA*d[5mC]*d[5mC]*dT*d[5mC]*eA*e[5mC]*e[5mC]*e[5mC]*eA) [compound 771885] ? 0

Further, for 771825 (antisense e[5mC]*eT*e[5mC]*eT*e[5mC]*dA*dT*dT*dT*d[5mC]*dT*dG*dG*dA*dA*e[5mC]*e[5mC]*e[5mC]*eA*e[5mC]) [compound 771825] ? 15

###

- Test system: human SMAD7 mRNA
- method: Antisense inhibition of human SMAD7 mRNA expression in Hep3B cells by 3-10-3 cEt gapmers, 10,000 nM, electroporation (Example 2)
- Format: cell-based
- condition parameters: SMAD7 mRNA, Hep3B cells, 10,000 nM antisense oligonucleotide, electroporation, approximately 24 hours, primer probe set RTS5062, relative to untreated control cells
Strand notation (5' to 3'): a small letter for the sugar, then the base; units joined by * are phosphorothioate-linked, units joined directly phosphodiester-linked; [ ] holds rarer units or linkages, { } end groups; capitals alone tell only the bases. k = constrained ethyl (cEt); [5mC] = 5-methylcytosine; d = 2'-deoxy (DNA)
Reported % Inhibition is given for each of the following substances.
The figure you give is taken to be in %; do not add the unit.

{"substance": "829792 (k[5mC]*kT*kT*d[5mC]*d[5mC]*d[5mC]*dG*dT*dA*dA*dG*dA*dT*kT*k[5mC]*kA; antisense) [compound 829792]", "% Inhibition, %": 39}
{"substance": "772714 (kA*kG*kG*dT*dG*dA*dT*dA*dA*d[5mC]*dA*d[5mC]*d[5mC]*k[5mC]*kA*kT; antisense) [compound 772714]", "% Inhibition, %": 0}
{"substance": "829776 (antisense kG*k[5mC]*kG*dA*dG*dT*dA*dG*dG*dA*d[5mC]*dG*dA*kG*kG*kG) [compound 829776]", "% Inhibition, %": 64}
{"substance": "790516 (kG*kT*kA*dA*d[5mC]*dT*dG*d[5mC]*dT*dG*d[5mC]*dG*dG*kT*kT*kG; antisense) [compound 790516]", "% Inhibition, %": 45}
{"substance": "829791 (kT*kT*k[5mC]*d[5mC]*d[5mC]*dG*dT*dA*dA*dG*dA*dT*dT*k[5mC]*kA*k[5mC]; antisense) [compound 829791]", "% Inhibition, %": 38}

Consider the record given below.
Would you kindly share the measured % Inhibition for 829782 (antisense kA*kT*k[5mC]*d[5mC]*dG*dG*d[5mC]*d[5mC]*dA*d[5mC]*d[5mC]*dT*dG*kA*kA*k[5mC]) [compound 829782] ? 36

###

- Test system: human peripheral blood mononuclear cells (PBMCs)
- method: Human PBMC activation assay, cytokine levels (IL-10, IL-6, MCP-1, TNF-α) in supernatant after 24 hours (Example 9)
- condition parameters: human PBMC supernatant after 24 hours; 0.0128 μM oligonucleotide
Reported Levels of TNF-α is given for each of the following substances.
The figure you give is taken to be in pg/mL; do not add the unit.

Below, each entry is followed by its recorded Levels of TNF-α result.
{"substance": "736697 (antisense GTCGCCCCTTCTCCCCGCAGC; chemistry not fully specified) [compound 736697]", "tested on": "human peripheral blood mononuclear cells (PBMCs)", "numeric value": 2.8}
{"substance": "830121 (AGAATCAAGCCCTGGC; 3-10-3 cEt gapmer, further chemistry not given here) [compound 830121]", "tested on": "human peripheral blood mononuclear cells (PBMCs)", "numeric value": 3.0}
{"substance": "790615 (CCAATGAGAATGCTTC; 3-10-3 cEt gapmer, further chemistry not given here) [compound 790615]", "tested on": "human peripheral blood mononuclear cells (PBMCs)", "numeric value": 3.1}
{"substance": "830037 (antisense CTATTGGCTGATCTGG; 3-10-3 cEt gapmer, further chemistry not given here) [compound 830037]", "tested on": "human peripheral blood mononuclear cells (PBMCs)", "numeric value": 3.2}
{"substance": "830025 (antisense TTTGTAAATCGAAAGC; 3-10-3 cEt gapmer, further chemistry not given here) [compound 830025]", "tested on": "human peripheral blood mononuclear cells (PBMCs)", "numeric value": 2.8}
{"substance": "829994 (GGAGGCAGGGCCGCGA; 3-10-3 cEt gapmer, further chemistry not given here) [compound 829994]", "tested on": "human peripheral blood mononuclear cells (PBMCs)", "numeric value": 2.5}

Would you kindly share the measured Levels of TNF-α for 798781 (CGTAAGATTCACAGCA; 3-10-3 cEt gapmer, further chemistry not given here) [compound 798781] ? 2.6
